From: patent US20020019533A1

- Measured On: serotonin 2 receptor (Bos taurus, UniProt Q75Z89)
- Sequence (Q75Z89 whole entry): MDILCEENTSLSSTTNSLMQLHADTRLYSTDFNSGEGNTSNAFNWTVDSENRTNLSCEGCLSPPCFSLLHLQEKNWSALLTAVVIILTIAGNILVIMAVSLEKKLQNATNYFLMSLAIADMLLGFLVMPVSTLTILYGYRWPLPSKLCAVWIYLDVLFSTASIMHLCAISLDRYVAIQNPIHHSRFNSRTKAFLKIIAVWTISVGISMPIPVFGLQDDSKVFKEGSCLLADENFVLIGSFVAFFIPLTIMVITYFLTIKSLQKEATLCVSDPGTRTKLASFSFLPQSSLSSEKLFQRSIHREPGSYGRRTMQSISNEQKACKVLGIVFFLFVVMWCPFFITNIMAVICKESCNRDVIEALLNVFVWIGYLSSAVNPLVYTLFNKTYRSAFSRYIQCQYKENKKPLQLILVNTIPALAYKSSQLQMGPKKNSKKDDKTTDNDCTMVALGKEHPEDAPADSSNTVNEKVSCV
Attribute Measured: Ki

# input Find the recorded Ki belonging to O=CN1CCC(C(=O)NCCN2CCC(=C3c4ccccc4C=Cc4ccccc43)CC2)CC1 [Compound 3] and report it.
# output 3.98 nM

====

- Test system: platelet aggregation by serotonin
- Assay Overview: In vivo anti-platelet effect after oral administration: ADP + serotonin induced aggregation of PRP taken 2 hours after dosing
- Set-up: species or system SD rats
- Condition Parameters: 0.3 mg/kg oral, 2 hours after administration, arabic gum group = 100%, n=3
Attribute Measured: Increase in aggregation by serotonin
Answer with the number, then the unit.

In the examples that follow, each entry is paired with its recorded Increase in aggregation by serotonin.
[
  {
    "Compound": "O=CN1CCC(C(=O)NCCN2CCC(=C3c4ccccc4C=Cc4ccccc43)CC2)CC1 [Compound 3]",
    "Measured On": "platelet aggregation by serotonin",
    "Measured": "57.3%"
  },
  {
    "Compound": "O=C(NCCN1CCC(=C2c3ccccc3C=Cc3ccccc32)CC1)C1CCCCN1 (centres unmarked) [Compound 9]",
    "Measured On": "platelet aggregation by serotonin",
    "Measured": "57.3%"
  },
  {
    "Compound": "NC1(C(=O)NCCN2CCC(=C3c4ccccc4C=Cc4ccccc43)CC2)CCCCC1 [Compound 18]",
    "Measured On": "platelet aggregation by serotonin",
    "Measured": "94.9%"
  },
  {
    "Compound": "C1=Cc2ccccc2C(=C2CCN(CCCCN3CCOCC3)CC2)c2ccccc21 [Compound 41]",
    "Measured On": "platelet aggregation by serotonin",
    "Measured": "91.5%"
  }
]

Now examine the next entry.
# input Find the recorded Increase in aggregation by serotonin belonging to CC(C)(C)OC(=O)NCCN1CCC(=C2c3ccccc3C=Cc3ccccc32)CC1 [Compound 17] and report it.
# output 50.7%
